The values you see were collected from ChEMBL document CHEMBL2384972.

Target: Dual specificity tyrosine-phosphorylation-regulated kinase 1B (Homo sapiens)
Sequence (Q9Y463 whole entry): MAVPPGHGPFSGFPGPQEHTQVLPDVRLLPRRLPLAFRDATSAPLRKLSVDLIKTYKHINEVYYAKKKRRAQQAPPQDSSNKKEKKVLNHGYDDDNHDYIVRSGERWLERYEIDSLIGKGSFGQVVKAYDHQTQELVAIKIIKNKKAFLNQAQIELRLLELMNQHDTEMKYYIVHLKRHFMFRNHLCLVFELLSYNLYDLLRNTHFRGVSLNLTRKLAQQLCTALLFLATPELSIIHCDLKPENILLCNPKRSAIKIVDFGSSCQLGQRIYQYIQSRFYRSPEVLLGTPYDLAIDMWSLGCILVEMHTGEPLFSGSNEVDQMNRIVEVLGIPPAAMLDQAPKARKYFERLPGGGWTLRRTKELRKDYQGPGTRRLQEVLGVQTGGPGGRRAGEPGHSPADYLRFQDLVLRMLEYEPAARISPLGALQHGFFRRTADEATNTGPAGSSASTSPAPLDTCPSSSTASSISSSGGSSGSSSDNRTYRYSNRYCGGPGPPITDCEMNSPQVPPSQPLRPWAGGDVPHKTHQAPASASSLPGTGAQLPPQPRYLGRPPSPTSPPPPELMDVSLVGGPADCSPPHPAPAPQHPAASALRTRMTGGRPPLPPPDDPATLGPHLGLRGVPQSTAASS
Experiment: Inhibition of recombinant DYRK1B (unknown origin) after 120 mins in presence of [33P]-ATP
// reported IC50 per item
measured-attribute: IC50 (nM)

# compound-smiles, measured-attribute, quantitative-readout
data = [
    ("COC(=N)c1nc2ccc3ncnc(Nc4ccc(F)cc4Br)c3c2s1", "IC50", 6.55),
    ("COC(=N)c1nc2ccc3ncnc(Nc4ccc(Br)cc4F)c3c2s1", "IC50", 0.24),
]

====

// reported IC50 per item
Target: Dual specificity tyrosine-phosphorylation-regulated kinase 1A (Homo sapiens)
Test: Inhibition of recombinant DYRK1A (unknown origin) after 120 mins in presence of [33P]-ATP
measured-attribute: IC50 (nM)

# compound-smiles, assayed-target, quantitative-readout
records = [
    ("COC(=N)c1nc2ccc3ncnc(Nc4ccc(F)cc4Br)c3c2s1", "Dual specificity tyrosine-phosphorylation-regulated kinase 1A (Homo sapiens)", 3.6),
    ("COC(=N)c1nc2ccc3ncnc(Nc4ccc(Br)cc4F)c3c2s1", "Dual specificity tyrosine-phosphorylation-regulated kinase 1A (Homo sapiens)", 0.16),
]
